// data source = PubChem BioAssay AID1159506

Protocol Summary: Identification of proteins required for the processing of the EWS-FLI1 nascent transcript;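 further: robust z of luciferase light less the median z of siRNAs with the same seed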
Details: TC32 Ewing sarcoma NR0B1-luc vs CMV-luc, 48 h; screened at 20 nM (by protocol)
The full ranking holds about 59,000 sequences; the median of the read-out is about -0.00055, and the lowest 2% start at about -2. The full list was thinned out, with the lowest values kept by preference.
Labels assigned by seed-corrected z-score range: class A = under -0.8, class B = from -0.8 up to -0.07, class C = -0.07 and over

Field: example entries. Status: answers known.
>>> print(df.to_string())
                    residue_sequence  group_label
0  UGAGGUACUCGCUUUCCUG against TCTE1      class B
1  UUUUCUACAGCUCUCACUC against CREB3      class A
2  UCGUUGUAUAAUUUUGCCC against WDR17      class A
3    AUACUACUUACAACCGGGC against SON      class C
4   AACGGAAAUGCUGACAUCG against EPRS      class B

Where would UCAACUUCCAUGAUUUUCC against IGF2BP2 land among the classes by reported seed-corrected z-score?
class B

Where would UGUCAAACUGGUGCUGUUG against NAGLU land among the classes by reported seed-corrected z-score?
class B

* * *

Protocol Summary: Identification of proteins required for the processing of the EWS-FLI1 nascent transcript;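 further: robust z of luciferase light less the median z of siRNAs with the same seed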
Details: TC32 Ewing sarcoma NR0B1-luc vs CMV-luc (EWS-FLI1 target promoter against control promoter), 48 h; screened at 20 nM (by protocol)
Protocol: Ewing sarcoma (ES) cells depend on the EWS-FLI1 fusion transcription factor for cell survival. […] Luciferase activity was assessed 48 hours post siRNA-transfection. Twenty microl of serum-free media containing Lipofectamine RNAiMax (0.05 microl) was added to wells containing siRNA (0.8 pmol). […] Luciferase expression was measured using OneGlo (Promega, Madison, WI). […]
In all, about 59,000 sequences were measured (the read-out: median about -0.00055, lowest 2% from about -2 on). The entries come from a sample that favours the lowest values as a whole.
Lab note: compare seed-corrected z-score against -0.6. Equal or greater, write true. Smaller, write false.

Field: example entries. Status: answers known.
                      residue_sequence  group_label
0  UUCGAGCUUUCUUAUGUCC against SLC12A6         true
1    UGAUGAAGUAGAGACGUGC against EXTL2         true
2    UAUUAUCAAUGGUCCAGGG against AAGAB         true
3   AGCUUUAUUCAGUCAGUGC against GPBAR1         true
4   UUCUCGUUGAUCUUUUUGG against CPXCR1         true

Test whether the sequence UCGUACUUUAAAGAUGUCC against CR1 records seed-corrected z-score of -0.6 or higher.
true

Test whether the sequence UUGAUUCUCGGGUCUUUGG against FAM71F2 records seed-corrected z-score of -0.6 or higher.
false

Test whether the sequence UCUGUAACAUGCGGAGUUC against M1AP records seed-corrected z-score of -0.6 or higher.
false

Test whether the sequence UCAUGUGGCAUUUCUGGGA against LOC642852 records seed-corrected z-score of -0.6 or higher.
false

Test whether the sequence UUUGAUAUGAUGUUCCACC against DDX50 records seed-corrected z-score of -0.6 or higher.
true

Test whether the sequence UCUGGACACGGCUUAUUGC against C17orf58 records seed-corrected z-score of -0.6 or higher.
true

Test whether the sequence UUCGGUUCAUGACAAAUAC against SLC35F5 records seed-corrected z-score of -0.6 or higher.
true
